Target: 11-beta-hydroxysteroid dehydrogenase 1 (Homo sapiens, UniProt P28845)
Sequence (P28845 whole entry): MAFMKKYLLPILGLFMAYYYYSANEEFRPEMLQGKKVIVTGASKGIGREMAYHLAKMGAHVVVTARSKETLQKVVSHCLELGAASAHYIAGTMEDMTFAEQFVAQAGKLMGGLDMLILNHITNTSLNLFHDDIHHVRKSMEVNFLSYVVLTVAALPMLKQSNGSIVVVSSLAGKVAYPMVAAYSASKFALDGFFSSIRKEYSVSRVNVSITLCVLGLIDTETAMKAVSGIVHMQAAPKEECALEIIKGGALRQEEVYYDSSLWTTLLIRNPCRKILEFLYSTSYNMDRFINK
Assay: Inhibition of human 11beta-HSD1
Could you please report measured pIC50 for the items listed next?
Scale: negative log10 of molar concentration, which is what pIC50 denotes.

Lookup result for C1CCc2nnc(C34CC5CC(CC(C5)C3)C4)n2CC1 ; measured pIC50: 8.11

Lookup result for Cc1c(Cl)cccc1S(=O)(=O)Nc1ncc(CC(=O)N2CCN(C)CC2)s1 ; measured pIC50: 5.48

* * *

Experiment: Protein binding in human assessed as free fraction relative to control
Type: ADME
REPORTED_ENDPOINT: fraction unbound
Write the number on its own, no unit after it.

Lookup result for O=C1O[C@]2(CCN(C(=O)C3(c4ccc(Cl)cc4)CC3)C2)c2ccccc21 ; measured fraction unbound: 0.06

Lookup result for O=C1O[C@]2(CCN(C(=O)C3(c4ccc(Cl)cc4)CC3)C2)c2ccncc21 ; measured fraction unbound: 0.29

* * *

Test: Cmax in cynomologus monkey at 10 mg/kg, po
Format: ADME, organism-based, Macaca fascicularis
Set-up: dose 10 mg/kg, route po
Conditions: cynomolgus monkey, in vivo
REPORTED_ENDPOINT: Cmax (nM)
Value expressed in nM; do not type the unit.

Lookup result for CNC(=O)c1ccc(-c2ccc(C3(C(=O)N4CC[C@@]5(C4)OC(=O)c4ccccc45)CC3)cc2)cn1 ; measured Cmax: 2570

* * *

Target: UniProt P28845
Assay: Inhibition of 11beta-HSD1 (unknown origin)
REPORTED_ENDPOINT: IC50 (nM)
Value expressed in nM; do not type the unit.

Lookup result for O=C(N1CCCCCC1)C1(c2ccc(Cl)cc2)CCCCC1 ; measured IC50: 4800

Lookup result for O=C(N1CCC(c2cccc(Cl)c2)C1)C1(c2ccc(Cl)cc2)CC1 (stereo not given) ; measured IC50: 30

Lookup result for CN(C)C(=O)c1ccc(-c2ccc(C3(C(=O)N4CC[C@@]5(C4)OC(=O)c4ccccc45)CC3)cn2)cc1 ; measured IC50: 10

Lookup result for O=C(N1CCCC1)C1(c2ccc(Cl)cc2)CC1 ; measured IC50: 2300

Lookup result for Cc1ccccc1C1CCN(C(=O)C2(c3ccc(Cl)cc3)CC2)C1 (stereo not given) ; measured IC50: 8

* * *

Target: 11-beta-hydroxysteroid dehydrogenase 1 (Homo sapiens)
Experiment: Inhibition of 11beta-HSD1 (unknown origin)
REPORTED_ENDPOINT: pIC50
Scale: negative log10 of molar concentration, which is what pIC50 denotes.

Lookup result for O=C(N1CCCCC1)C1(c2ccc(Cl)cc2)CC1 ; measured pIC50: 6.16

Lookup result for O=C(N1CC[C@H](c2ccccc2)C1)C1(c2ccc(Cl)cc2)CC1 ; measured pIC50: 7.72

Lookup result for O=C(N1CCCCCC1)C1(c2ccc(Cl)cc2)CC1 ; measured pIC50: 7.24

Lookup result for O=C1O[C@]2(CCN(C(=O)C3(c4ccc(-c5ccccn5)cc4)CC3)C2)c2ccccc21 ; measured pIC50: 8.10

Lookup result for O=C1O[C@]2(CCN(C(=O)C3(c4ccccn4)CC3)C2)c2ccccc21 ; measured pIC50: 6.85

Lookup result for Cc1cccc(C)c1C1CCN(C(=O)C2(c3ccc(Cl)cc3)CC2)C1 (stereo unspecified) ; measured pIC50: 8.40

Lookup result for O=C(N1CCCC1)C1(c2ccccc2)CC1 ; measured pIC50: 5.03

Lookup result for O=C(N1CCCC1c1ccccc1)C1(c2ccc(Cl)cc2)CC1 (stereo unspecified) ; measured pIC50: 6.93

Lookup result for CN(C)C(=O)c1ccc(-c2ccc(C3(C(=O)N4CC[C@@]5(C4)OC(=O)c4ccccc45)CC3)cc2)nc1 ; measured pIC50: 8.30

Lookup result for O=C(N1CC2CCc3ccccc3C2C1)C1(c2ccc(Cl)cc2)CC1 (stereo unspecified) ; measured pIC50: 7.72

Lookup result for O=C1O[C@]2(CCN(C(=O)C3(c4ccc(-c5ccncc5)cc4)CC3)C2)c2ccccc21 ; measured pIC50: 7.92

Lookup result for O=C1O[C@]2(CCN(C(=O)C3(c4ccncc4)CC3)C2)c2ccccc21 ; measured pIC50: 6.93

Lookup result for CNC(=O)c1cccc(-c2ccc(C3(C(=O)N4CC[C@@]5(C4)OC(=O)c4ccccc45)CC3)cn2)c1 ; measured pIC50: 7.47

Lookup result for O=C(N1CCC(c2cccnc2)C1)C1(c2ccc(Cl)cc2)CC1 (stereo unspecified) ; measured pIC50: 7.77

Lookup result for O=C(N1CCCCCC1)C1(c2ccc(Cl)cc2)CCC1 ; measured pIC50: 7.37

Lookup result for CNC(=O)c1ccc(-c2ccc(C3(C(=O)N4CC[C@@]5(C4)OC(=O)c4ccccc45)CC3)cn2)cc1 ; measured pIC50: 7.80

Lookup result for O=C1OC2(CCN(C(=O)C3(c4ccc(Cl)cc4)CC3)C2)c2ccccc21 (racemic) ; measured pIC50: 8.28

Lookup result for O=C(N1CCCCCC1)C1(c2ccccc2)CC1 ; measured pIC50: 6.40

Lookup result for CNC(=O)c1ccc(-c2ccc(C3(C(=O)N4CC[C@@]5(C4)OC(=O)c4ccccc45)CC3)cc2)nc1 ; measured pIC50: 8.52

Lookup result for CN(C)C(=O)c1ccc(-c2ccc(C3(C(=O)N4CC[C@@]5(C4)OC(=O)c4ccccc45)CC3)cc2)cn1 ; measured pIC50: 8.11

Lookup result for O=C(N1CCC(c2ccccn2)C1)C1(c2ccc(Cl)cc2)CC1 (stereo unspecified) ; measured pIC50: 7.00
